Kindly supply the reported glycan array binding signal (z-score) values for the records listed here.
TESTED_SYSTEM: Fuc(a1-3)[Gal3S(b1-4)]GlcNAc6S
ASSAY_COMMENT: glycan array binding signal (z-score within array); higher = stronger binding
DETAILS: glycan notation: IUPAC condensed, linker removed
The entries come from a sample that favours the strongest signals as a whole.
Answers are plain numbers.

Here's what some known entries look like.
| BINDER | glycan array binding signal (z-score) |
| --- | --- |
| CLC (Homo sapiens), Q9UBD9 (protein) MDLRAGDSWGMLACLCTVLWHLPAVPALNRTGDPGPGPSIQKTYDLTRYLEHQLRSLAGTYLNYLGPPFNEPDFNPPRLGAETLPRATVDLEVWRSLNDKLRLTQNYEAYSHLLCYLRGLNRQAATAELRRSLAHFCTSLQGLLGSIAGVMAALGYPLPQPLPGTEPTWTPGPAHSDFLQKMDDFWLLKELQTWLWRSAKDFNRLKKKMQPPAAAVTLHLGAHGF | 2.72 |
| LgFlo1 (Saccharomyces pastorianus), B3IUA8 (protein) SGSTQACLPVGSRKNGMNVNFYKYSLQDSTTYSDPQYMAYKYSDTKKLGSVSGQTHLSIYYGPNTAFWNTASWSSDLFGFYTTPTNVTVEMTGYFLPPQTGSYTFKFATVDDSAILSVGGSIAFECCAQEQPPITSTDFTINGIKPWDAATPTDIKGSTYMYAGYYYPIKIVYSNAKALARLPVSVVLPDGTEVNDDFEGYVYSFDDDLSQSNCTIPDPSKHTTS | 0.042 |

Now turn to the next binder.
Give reported glycan array binding signal (z-score) value for Tectonin 2 (Laccaria bicolor) (protein) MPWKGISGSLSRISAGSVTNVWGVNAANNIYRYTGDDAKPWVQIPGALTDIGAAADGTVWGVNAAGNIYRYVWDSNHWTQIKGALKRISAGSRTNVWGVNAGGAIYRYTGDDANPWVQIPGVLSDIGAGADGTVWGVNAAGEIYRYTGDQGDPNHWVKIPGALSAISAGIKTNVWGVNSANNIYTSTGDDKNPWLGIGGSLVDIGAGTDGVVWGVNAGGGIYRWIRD
0.299
